Values compiled from patent US20260078103A1.

# Test system: T47D cells expressing mutant PI3Ka (H1047R)
# run_description: In vitro cell proliferation, T47D cells (CellTiter-Glo)
# Assay type: cell-based
# measurement_setup: inhibition of proliferation, 72 hours, read-out: Avg T-47D EC50
endpoint_label: EC50

# count of solved cases: 3
{"compound": "Cc1cc([C@@H](C)Nc2ccc(Cl)c(F)c2C(=O)O)c2cc(N3CCN(CC(F)(F)F)CC3)n(C)c(=O)c2c1", "EC50": "500 to 2000 nM"}
{"compound": "Cc1cc(C(C)Nc2ccccc2C(=O)O)c2cc(N3Cc4ccc(F)cc4C3)n(C)c(=O)c2c1 (single isomer, unassigned) [Example 50]", "EC50": "2000 to 15000 nM"}
{"compound": "Cc1cc([C@@H](C)Nc2ccccc2C(=O)O)c2cc(-c3cnc(C(C)(F)F)cn3)n(C)c(=O)c2c1", "EC50": "1 to 500 nM"}

Sure, the documented EC50 for Cc1cc(C(C)Nc2ccccc2C(=O)O)c2cc(N3Cc4ccc(F)cc4C3)n(C)c(=O)c2c1 (single isomer, unassigned) [Example 49] is 1 to 500 nM

// sample Cc1cc(C(C)Nc2ccccc2C(=O)O)c2cc(N3CCN4C(=O)OC[C@H]4C3)n(C)c(=O)c2c1 (single isomer, unassigned) [Example 141] , its EC50 was > 15000 nM

---

# System: T47D cells expressing mutant PI3Ka (H1047R)
# run_description: In vitro cell proliferation, T47D cells (CellTiter-Glo)
# Type: cell-based
# measurement_setup: inhibition of proliferation, 72 hours, read-out: Avg T-47D EC50
pEC50: −log10 of the molar value.
Reported pEC50 is given for each of the following compounds.

Sample answers from the record:
{"compound": "Cc1cc(C(C)Nc2ccccc2C(=O)O)c2cc(C#Cc3cccc(C#N)c3)n(C)c(=O)c2c1 (centres unmarked)", "pEC50": "4.82 to 5.70"}
{"compound": "COC[C@@H]1CC1c1cc2c([C@@H](C)Nc3ccccc3C(=O)O)cc(C)cc2c(=O)n1C (single isomer, unassigned)", "pEC50": "6.30 to 9.00"}
{"compound": "Cc1cc(C(C)Nc2ccc(Cl)nc2C(=O)O)c2cc(C3=CCC(C)(C)CC3)n(C)c(=O)c2c1 (single isomer, unassigned) [Example 23]", "pEC50": "6.30 to 9.00"}
{"compound": "Cc1cc(C(C)Nc2ccccc2C(=O)O)c2cc(N3CCS(=O)(=O)CC3)n(C)c(=O)c2c1 (single isomer, unassigned) [Example 150]", "pEC50": "4.82 to 5.70"}
{"compound": "COC(C)(C)c1ncc(-c2cc3c([C@@H](C)Nc4ccccc4C(=O)O)cc(C)cc3c(=O)n2C)cc1F", "pEC50": "6.30 to 9.00"}
{"compound": "C[C@@H](Nc1ccccc1C(=O)O)c1cc(F)cc2c(=O)n(C)c(C34CC(C(F)(F)F)(C3)C4)cc12", "pEC50": "6.30 to 9.00"}
{"compound": "C[C@@H](Nc1cccc(F)c1C(=O)O)c1cc(F)cc2c(=O)n(C)c(C3C[C@@H]3C3CC3)cc12 (single isomer, unassigned) [Example 426]", "pEC50": "6.30 to 9.00"}

Query compound follows.
Note to self: pEC50 recorded for C[C@@H](Nc1cccc(F)c1C(=O)O)c1cc(F)cc2c(=O)n(C)c(C3CC3(F)F)cc12 (single isomer, unassigned) [Example 479] was 4.82 to 5.70
